pIC50 values for the compounds below.
# targetUnderTest: PAK4 (UniProt O96013)
# Sequence (O96013 whole entry, looked up): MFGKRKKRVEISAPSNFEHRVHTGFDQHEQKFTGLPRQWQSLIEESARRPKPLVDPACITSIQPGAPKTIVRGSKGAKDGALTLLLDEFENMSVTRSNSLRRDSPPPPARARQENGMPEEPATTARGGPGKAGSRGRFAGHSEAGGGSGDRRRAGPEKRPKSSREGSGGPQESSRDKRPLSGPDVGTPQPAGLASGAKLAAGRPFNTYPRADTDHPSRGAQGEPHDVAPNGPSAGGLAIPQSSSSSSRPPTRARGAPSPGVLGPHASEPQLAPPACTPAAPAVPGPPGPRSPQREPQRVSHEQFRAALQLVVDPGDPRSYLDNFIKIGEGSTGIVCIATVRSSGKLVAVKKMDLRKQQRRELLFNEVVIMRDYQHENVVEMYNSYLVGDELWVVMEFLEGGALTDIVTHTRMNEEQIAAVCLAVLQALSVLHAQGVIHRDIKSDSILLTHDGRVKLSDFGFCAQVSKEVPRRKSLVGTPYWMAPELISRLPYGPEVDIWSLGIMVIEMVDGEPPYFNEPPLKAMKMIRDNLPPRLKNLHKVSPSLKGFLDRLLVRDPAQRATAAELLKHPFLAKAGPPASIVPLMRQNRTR
# assayProtocol: pIC50, kinobeads binding competition
# measurementSetup: cell material: Lysate mix

{"compound": "CCNC(=O)c1cc(Nc2cc(C)[nH]n2)nc(N2CCN(Cc3ccc(S(=O)(=O)F)cc3)CC2)n1", "targetUnderTest": "PAK4 (UniProt O96013)", "pIC50": 4.7}
{"compound": "C#CCNC(=O)c1cc(Nc2cc(C)[nH]n2)nc(N2CCN(Cc3ccc(S(=O)(=O)F)cc3)CC2)n1", "targetUnderTest": "PAK4 (UniProt O96013)", "pIC50": 4.8}
{"compound": "Cc1cc(Nc2cc(C(=O)NCCNC(=O)OC3CC/C=C/CCC3)nc(N3CCN(Cc4ccc(S(=O)(=O)F)cc4)CC3)n2)n[nH]1 (stereo unspecified)", "targetUnderTest": "PAK4 (UniProt O96013)", "pIC50": "< 4.52"}
{"compound": "O=C(NCCNC(=O)c1cc(Nc2cc(C3CC3)[nH]n2)nc(N2CCN(Cc3ccc(S(=O)(=O)F)cc3)CC2)n1)OC1CC/C=C/CCC1 (stereo unspecified)", "targetUnderTest": "PAK4 (UniProt O96013)", "pIC50": "< 4.52"}
{"compound": "C#CCNC(=O)c1cc(Nc2cc(C3CC3)[nH]n2)nc(N2CCN(Cc3ccc(S(=O)(=O)F)cc3)CC2)n1", "targetUnderTest": "PAK4 (UniProt O96013)", "pIC50": 5.58}
{"compound": "CCNC(=O)c1cc(Nc2cc(C3CC3)[nH]n2)nc(N2CCN(Cc3ccc(S(=O)(=O)F)cc3)CC2)n1", "targetUnderTest": "PAK4 (UniProt O96013)", "pIC50": 5.27}

----------
# targetUnderTest: STK39 (UniProt Q9UEW8)
# assayProtocol: pIC50, kinobeads binding competition
# measurementSetup: cell material: Lysate mix
pIC50 values for the molecules below.
readout: pIC50

{"molecule": "Cc1cc(Nc2cc(C(=O)NCCNC(=O)OC3CC/C=C/CCC3)nc(N3CCN(Cc4ccc(S(=O)(=O)F)cc4)CC3)n2)n[nH]1 (stereo not given)", "resultQualifier": "<", "measurement": 4.52}
{"molecule": "CCNC(=O)c1cc(Nc2cc(C3CC3)[nH]n2)nc(N2CCN(Cc3ccc(S(=O)(=O)F)cc3)CC2)n1", "resultQualifier": "=", "measurement": 5.65}
{"molecule": "C#CCNC(=O)c1cc(Nc2cc(C)[nH]n2)nc(N2CCN(Cc3ccc(S(=O)(=O)F)cc3)CC2)n1", "resultQualifier": "=", "measurement": 5.73}
{"molecule": "C#CCNC(=O)c1cc(Nc2cc(C3CC3)[nH]n2)nc(N2CCN(Cc3ccc(S(=O)(=O)F)cc3)CC2)n1", "resultQualifier": "=", "measurement": 5.92}
{"molecule": "CCNC(=O)c1cc(Nc2cc(C)[nH]n2)nc(N2CCN(Cc3ccc(S(=O)(=O)F)cc3)CC2)n1", "resultQualifier": "=", "measurement": 4.66}

----------
pIC50 values for the compounds below.
# targetUnderTest: UniProt Q9UQB9
# Sequence (whole entry): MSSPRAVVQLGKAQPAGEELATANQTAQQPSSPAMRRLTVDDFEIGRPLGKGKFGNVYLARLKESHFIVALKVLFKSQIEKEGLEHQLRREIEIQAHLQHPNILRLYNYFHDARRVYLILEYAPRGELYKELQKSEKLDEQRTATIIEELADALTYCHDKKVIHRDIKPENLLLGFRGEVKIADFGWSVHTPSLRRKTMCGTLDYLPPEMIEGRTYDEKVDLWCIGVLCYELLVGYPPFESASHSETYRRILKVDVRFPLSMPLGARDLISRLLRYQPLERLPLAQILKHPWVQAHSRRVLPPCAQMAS
# assayProtocol: pIC50, kinobeads binding competition
# measurementSetup: cell material: Lysate mix

{"compound": "O=C(NCCNC(=O)c1cc(Nc2cc(C3CC3)[nH]n2)nc(N2CCN(Cc3ccc(S(=O)(=O)F)cc3)CC2)n1)OC1CC/C=C/CCC1 (stereo not given)", "pIC50": 4.88}
{"compound": "C#CCNC(=O)c1cc(Nc2cc(C3CC3)[nH]n2)nc(N2CCN(Cc3ccc(S(=O)(=O)F)cc3)CC2)n1", "pIC50": 5.81}
{"compound": "CCNC(=O)c1cc(Nc2cc(C3CC3)[nH]n2)nc(N2CCN(Cc3ccc(S(=O)(=O)F)cc3)CC2)n1", "pIC50": 5.26}
{"compound": "CCNC(=O)c1cc(Nc2cc(C)[nH]n2)nc(N2CCN(Cc3ccc(S(=O)(=O)F)cc3)CC2)n1", "pIC50": 5.64}
{"compound": "Cc1cc(Nc2cc(C(=O)NCCNC(=O)OC3CC/C=C/CCC3)nc(N3CCN(Cc4ccc(S(=O)(=O)F)cc4)CC3)n2)n[nH]1 (stereo not given)", "pIC50": 4.7}
